Test system: A549 cells
Procedure summary: MTT anti-proliferative assay, A549
Type: cell-based, human
Condition context: Homo sapiens, A549, 48 h, mean ± SD of three experiments
Experimental: The antiproliferative activity of the synthesised derivatives of the 3-methylbenzofuran series (4a–d, 6a–c, 8a–c and 11) and the 3-(morpholinomethyl)benzofuran series (15a–c, 16a–b, 17a–b and 18) was evaluated against non-small cell lung carcinoma (NSCLC) A549 and NCI-H23 cell lines, following the procedures of the MTT assay. […] 1. Anti-proliferative action toward human […] cell lines […]
Metric name: pIC50
When answering, recall that pIC50 equals minus log10 of the concentration in mol/L, and write that number alone.

Worked cases, answers included:
{"Molecule": "O=C(NN=Cc1ccccc1)c1oc2ccccc2c1CN1CCOCC1 [Compound 17a]", "pIC50": 5.22}
{"Molecule": "Cc1c(C(=O)NNC(=O)Nc2ccc(Cl)c(C(F)(F)F)c2)oc2ccccc12", "pIC50": 4.33}

Next, consider the following molecule.
Reported pIC50 ( COc1cccc(NC(=O)NNC(=O)c2oc3ccccc3c2CN2CCOCC2)c1 [Compound 16a] ) = 5.82

* * *

Parameter pIC50: see the listing below.
System: NCI-H23 cells
Procedure summary: MTT anti-proliferative assay, NCI-H23
Assay type: cell-based, human
Condition context: Homo sapiens, NCI-H23, 48 h, mean ± SD of three experiments
When answering, recall that pIC50 equals minus log10 of the concentration in mol/L, and write that number alone.

{"Compound": "COc1ccc(NC(=S)NNC(=O)c2oc3ccccc3c2CN2CCOCC2)cc1 [Compound 15b]", "Metric name": "pIC50", "Endpoint result": 4.16}
{"Compound": "Cc1c(C(=O)NN=C2CCCc3ccccc32)oc2ccccc12", "Metric name": "pIC50", "Endpoint result": 4.92}
{"Compound": "O=C(NN=C1CCCc2ccccc21)c1oc2ccccc2c1CN1CCOCC1", "Metric name": "pIC50", "Endpoint result": 4.53}
{"Compound": "O=C(NNC(=S)Nc1cccc(C(F)(F)F)c1)c1oc2ccccc2c1CN1CCOCC1 [Compound 15c]", "Metric name": "pIC50", "Endpoint result": 5.66}
{"Compound": "COc1cccc(NC(=S)NNC(=O)c2oc3ccccc3c2CN2CCOCC2)c1 [Compound 15a]", "Metric name": "pIC50", "Endpoint result": 5.60}

Reported pIC50 ( "COc1ccc(C(C)=NNC(=O)c2oc3ccccc3c2C)cc1" ) = 4.86

Reported pIC50 ( O=C(NN=Cc1ccccc1)c1oc2ccccc2c1CN1CCOCC1 [Compound 17a] ) = 4.64

* * *

Parameter log10(IC50): see the listing below.
Test system: A549 cells
Procedure summary: MTT anti-proliferative assay, A549
Type: cell-based, human
Condition context: Homo sapiens, A549, 48 h, mean ± SD of three experiments
Form field - Quantity: IC50; Unit: µM; Scale: log10

Worked cases, answers included:
{"Compound": "COc1ccc(NC(=O)NNC(=O)c2oc3ccccc3c2CN2CCOCC2)cc1 [Compound 16b]", "log10(IC50)": 1.28}
{"Compound": "COc1cccc(NC(=S)NNC(=O)c2oc3ccccc3c2C)c1", "log10(IC50)": 1.00}
{"Compound": "COc1cccc(NC(=S)NNC(=O)c2oc3ccccc3c2CN2CCOCC2)c1 [Compound 15a]", "log10(IC50)": 0.72}
{"Compound": "COc1cccc(C=NNC(=O)c2oc3ccccc3c2C)c1", "log10(IC50)": 1.64}
{"Compound": "Cc1c(C(=O)NN=C2CCCc3ccccc32)oc2ccccc12", "log10(IC50)": 1.48}
{"Compound": "COc1ccc(NC(=S)NNC(=O)c2oc3ccccc3c2CN2CCOCC2)cc1 [Compound 15b]", "log10(IC50)": 0.76}

Next, consider the following compound.
Reported log10(IC50) ( "COc1ccc(NC(=S)NNC(=O)c2oc3ccccc3c2C)cc1" ) = 0.17
